- Experiment Notes: refractive index (Na D-line) (dimensionless)
- Cond: 333.15 K; 101.33 kPa; Liquid; Standard Abbe refractometry
# refractive index per entry

- Compound: "CCCCCCCCCC[n+]1ccccc1.O=S(=O)([N-]S(=O)(=O)C(F)(F)F)C(F)(F)F [1-decylpyridinium bis(trifluoromethylsulfonyl)imide]"
  refractive index: 1.43796
- Compound: "CCCC[n+]1ccccc1.O=S(=O)([N-]S(=O)(=O)C(F)(F)F)C(F)(F)F [1-butylpyridinium bis[(trifluoromethyl)sulfonyl]imide]"
  refractive index: 1.43359
- Compound: "CCCCCCCC[n+]1ccccc1.O=S(=O)([N-]S(=O)(=O)C(F)(F)F)C(F)(F)F [1-octylpyridinium bis((trifluoromethyl)sulfonyl)amide]"
  refractive index: 1.43681
- Compound: "CCCCCCCCCCCC[n+]1ccccc1.O=S(=O)([N-]S(=O)(=O)C(F)(F)F)C(F)(F)F [1-dodecylpyridinium bis(trifluoromethylsulfonyl)imide]"
  refractive index: 1.43946

====

Entries and their mass density
- Cond: 303.15 K; 101.33 kPa; Liquid; Vibrating tube method

- Molecule: "CCCCCCCCCC[n+]1ccccc1.O=S(=O)([N-]S(=O)(=O)C(F)(F)F)C(F)(F)F [1-decylpyridinium bis(trifluoromethylsulfonyl)imide]"
  mass density [kg/m3]: 1279.2
- Molecule: "CCCC[n+]1ccccc1.O=S(=O)([N-]S(=O)(=O)C(F)(F)F)C(F)(F)F [1-butylpyridinium bis[(trifluoromethyl)sulfonyl]imide]"
  mass density [kg/m3]: 1442.9
- Molecule: "CCCCCCCCCCCC[n+]1ccccc1.O=S(=O)([N-]S(=O)(=O)C(F)(F)F)C(F)(F)F [1-dodecylpyridinium bis(trifluoromethylsulfonyl)imide]"
  mass density [kg/m3]: 1244.6
- Molecule: "CCCCCCCC[n+]1ccccc1.O=S(=O)([N-]S(=O)(=O)C(F)(F)F)C(F)(F)F [1-octylpyridinium bis((trifluoromethyl)sulfonyl)amide]"
  mass density [kg/m3]: 1322.5

====

- Cond: 333.15 K; 101.33 kPa; Liquid; Vibrating tube method

- Compound: "CCCC[n+]1ccccc1.O=S(=O)([N-]S(=O)(=O)C(F)(F)F)C(F)(F)F [1-butylpyridinium bis[(trifluoromethyl)sulfonyl]imide]"
  mass density, kg/m3: 1415.1
- Compound: "CCCCCCCCCC[n+]1ccccc1.O=S(=O)([N-]S(=O)(=O)C(F)(F)F)C(F)(F)F [1-decylpyridinium bis(trifluoromethylsulfonyl)imide]"
  mass density, kg/m3: 1254.3
- Compound: "CCCCCCCCCCCC[n+]1ccccc1.O=S(=O)([N-]S(=O)(=O)C(F)(F)F)C(F)(F)F [1-dodecylpyridinium bis(trifluoromethylsulfonyl)imide]"
  mass density, kg/m3: 1220.1
- Compound: "CCCCCCCC[n+]1ccccc1.O=S(=O)([N-]S(=O)(=O)C(F)(F)F)C(F)(F)F [1-octylpyridinium bis((trifluoromethyl)sulfonyl)amide]"
  mass density, kg/m3: 1296.8

====

- Cond: 318.15 K; 101.33 kPa; Liquid; Concentric cylinders viscometry
± gives the expanded uncertainty stated by the source.
// reported viscosity per item

- Compound: "CCCCCCCCCC[n+]1ccccc1.O=S(=O)([N-]S(=O)(=O)C(F)(F)F)C(F)(F)F [1-decylpyridinium bis(trifluoromethylsulfonyl)imide]"
  viscosity: "58.06 ± 1.3 mPa·s"
- Compound: "CCCCCCCCCCCC[n+]1ccccc1.O=S(=O)([N-]S(=O)(=O)C(F)(F)F)C(F)(F)F [1-dodecylpyridinium bis(trifluoromethylsulfonyl)imide]"
  viscosity: "72.83 ± 1.7 mPa·s"
- Compound: "CCCC[n+]1ccccc1.O=S(=O)([N-]S(=O)(=O)C(F)(F)F)C(F)(F)F [1-butylpyridinium bis[(trifluoromethyl)sulfonyl]imide]"
  viscosity: "27.56 ± 0.62 mPa·s"
- Compound: "CCCCCCCC[n+]1ccccc1.O=S(=O)([N-]S(=O)(=O)C(F)(F)F)C(F)(F)F [1-octylpyridinium bis((trifluoromethyl)sulfonyl)amide]"
  viscosity: "45.9 ± 1 mPa·s"

This collection of values is drawn from the NIST ThermoML archive (doi:10.1016/j.jct.2009.11.004).
